Tested on: CDK7;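 also: KINOMEscan kinase panel screen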
Settings: concentration: 1 μM,replicates: in singlicate; n = 1
property.name: %Inh (%)

[[record]]
compound = "Cc1n[nH]c2cc(Nc3ccnc(Nc4cccc(CN5CCOCC5)c4)n3)ccc12"
study_target = "CDK7"
reported_value = 0

[[record]]
compound = "C[C@@H](Oc1cc(-n2cnc3cc(-c4cnn(C)c4)ccc32)sc1C(N)=O)c1ccccc1Cl"
study_target = "CDK7"
reported_value = 0

[[record]]
compound = "COc1cccc(C2=C(Nc3cccc(Cl)c3)C(=O)NC2=O)c1"
study_target = "CDK7"
reported_value = 14

[[record]]
compound = "Cc1ccc(C(=O)Nc2ccc(Oc3ccc4nc(NC(=O)C5CC5)cn4c3)c(F)c2)c(=O)n1-c1ccccc1"
study_target = "CDK7"
reported_value = 76

[[record]]
compound = "CC(=O)Nc1ccc(-c2cc3ncnc(SCC(=O)O)c3s2)cc1"
study_target = "CDK7"
reported_value = 40

[[record]]
compound = "NC(=O)c1ccc(-c2cc3ncnc(SCC(=O)O)c3s2)cc1"
study_target = "CDK7"
reported_value = 58

[[record]]
compound = "COC(=O)c1cccc(NC(=O)NC2CCN(c3ccnc(Nc4cc(OC)c(OC)c(OC)c4)n3)C2)c1 (stereo not shown)"
study_target = "CDK7"
reported_value = 16

[[record]]
compound = "Nc1nccc(-c2ccc3c(N)n[nH]c3c2)n1"
study_target = "CDK7"
reported_value = 0

[[record]]
compound = "c1ccc(Oc2ccc(Nc3ccnc4ccc(-c5ccccn5)cc34)cc2)cc1"
study_target = "CDK7"
reported_value = 0

[[record]]
compound = "Cn1ccc2ncnc(Oc3ccc(NC(=O)Nc4cnn(C(C)(C)C)c4)c(Cl)c3)c21"
study_target = "CDK7"
reported_value = 27

[[record]]
compound = "COc1cc2nccc(Nc3ccc(Oc4ccccc4)cc3)c2cc1OC.Cl"
study_target = "CDK7"
reported_value = 0

[[record]]
compound = "N#Cc1cccc(C(=O)NC2CCN(c3ccnc(Nc4ccc(F)cc4)n3)C2)c1 (stereo not shown)"
study_target = "CDK7"
reported_value = 0

[[record]]
compound = "O=c1[nH]cc(-c2ccc(O)cc2)c2sc(-c3ccncc3)cc12"
study_target = "CDK7"
reported_value = 0

[[record]]
compound = "CN(c1ccccc1CNc1nc(Nc2ccc3c(c2)CC(=O)N3)ncc1C(F)(F)F)S(C)(=O)=O"
study_target = "CDK7"
reported_value = 67

[[record]]
compound = "O=C(Nc1n[nH]c2cc(-c3ccco3)ccc12)C1CC1"
study_target = "CDK7"
reported_value = 38

[[record]]
compound = "CN1CCN(CCNc2nc3cc(Oc4ccc(NC(=O)Nc5cc(C(F)(F)F)ccc5F)cc4)ccc3[nH]2)CC1.Cl.Cl"
study_target = "CDK7"
reported_value = 96.6

[[record]]
compound = "CS(=O)(=O)c1cccc(CNc2nc(Nc3ccc4c(c3)[C@@H]3C[C@@H]4CNC3=O)ncc2C(F)(F)F)c1"
study_target = "CDK7"
reported_value = 94

[[record]]
compound = "CN(c1ccc2c(c1)nc(NCc1ccc(F)cc1)n2C)c1ccnc(Nc2ccc(CS(C)(=O)=O)cc2)n1.Cl"
study_target = "CDK7"
reported_value = 31

[[record]]
compound = "CNC(=O)c1ccccc1Nc1nc(Nc2cccc(CS(C)(=O)=O)c2)ncc1C.O=CO"
study_target = "CDK7"
reported_value = 89

[[record]]
compound = "CC(C)c1nc(-c2cccc(NS(=O)(=O)c3ccccc3)c2)c(-c2ccnc(Nc3ccc4c(c3)CN(C)CC4)n2)s1"
study_target = "CDK7"
reported_value = 78

[[record]]
compound = "COc1cc2c(Nc3ccc(NC(=O)c4ccccc4)cc3)ncnc2cc1OCCCN1CCOCC1"
study_target = "CDK7"
reported_value = 24

[[record]]
compound = "O=C(Nc1cccc(C(F)(F)F)c1)c1cccc(Oc2ccc3nccn3n2)c1"
study_target = "CDK7"
reported_value = 0

[[record]]
compound = "CN(c1cccc(CNc2nc(Nc3ccc4c(c3)CC(=O)N4)ncc2C(F)(F)F)c1)S(C)(=O)=O"
study_target = "CDK7"
reported_value = 53

[[record]]
compound = "CN1CCN(CCCNc2nccc(-c3c(-c4ccc(F)cc4)nn4cc(C(N)=O)ccc34)n2)CC1"
study_target = "CDK7"
reported_value = 0

[[record]]
compound = "Cl.c1ccc(Oc2ccc(Nc3ccnc4cc(-c5ccc(CN6CCNCC6)o5)ccc34)cc2)nc1"
study_target = "CDK7"
reported_value = 52

[[record]]
compound = "C[C@@H](Oc1cc(-n2cnc3ccc(-c4ccncc4)cc32)sc1C(N)=O)c1ccccc1Cl"
study_target = "CDK7"
reported_value = 0

[[record]]
compound = "COC(=O)c1cccc(NC(=O)NC2CCN(c3ccnc(NCc4ccc(F)cc4)n3)CC2)c1"
study_target = "CDK7"
reported_value = 0

[[record]]
compound = "CC(C)S(=O)(=O)N1CCN(Cc2ccc3c(c2)nc(NC(=O)c2ccsc2)n3C[C@H](O)c2ccccc2)CC1"
study_target = "CDK7"
reported_value = 8

[[record]]
compound = "O=C(NCC1CC1)c1ccc(-c2cc(C(=O)NC3CC3)ccc2F)cc1"
study_target = "CDK7"
reported_value = 0

[[record]]
compound = "C[C@@H]1CNc2c(sc3ccc4nc(-c5ccncc5)ccc4c23)C(=O)N1"
study_target = "CDK7"
reported_value = 77

[[record]]
compound = "CCNCC(Cc1ccccc1)NC(=O)c1cc(Br)c(-c2ccnc3[nH]ccc23)s1.Cl.Cl (stereo not shown)"
study_target = "CDK7"
reported_value = 24

[[record]]
compound = "FC(F)(F)c1cc(Br)cc(Nc2nccc(-c3cnn4ncccc34)n2)c1"
study_target = "CDK7"
reported_value = 98.9

[[record]]
compound = "O=C(NOCC1CC1)c1cc(Br)c(F)c(F)c1Nc1ccc(I)cc1Cl"
study_target = "CDK7"
reported_value = 0

[[record]]
compound = "O=C(Nc1cccc(Oc2ccc3nccn3n2)c1)Nc1cccc(C(F)(F)F)c1"
study_target = "CDK7"
reported_value = 0


Each recorded value in this set is attributed to paper PMC5540273.
